assay: qHTS Assay for inhibitors of the human cytomegalovirus (HCMV); conditions: HFF cells, HCMV-luciferase reporter, 72 h; at 57.5 µM; hits give low values; also: % is scaled to controls: 0 for no effect and ±100 for the full control effect
Among all 410,000 compounds or so, about 18,000 (4.4%) were called active. About 7% were inconclusive and are not listed. For the sample, actives were picked, then their nearest neighbours and some compounds at random.
Please respond with reported activity change, negative = inhibition for every item in the list.

{"columns": ["molecule", "property", "endpoint.value"],
 "data": [
  ["O=C1C(=O)N(c2ccccc2)c2ccccc21", "activity change, negative = inhibition", "43.2% (inactive)"]
]}

For the 6 molecules below, give their activity change, negative = inhibition values.
1. Cc1cccc(NC(c2cccc(F)c2)c2ccc3ccc(C)nc3c2O)n1 (stereo not given)
2. CC(=O)c1ccccc1NC(=O)COC(=O)C1COc2ccccc2O1 (stereo not given)
3. Cc1ccc(Cl)cc1NC(=O)NC1COc2ccccc2C1 (stereo not given)
4. CCc1ccccc1NC(=O)Cc1ccc(NC(=O)N2CCCCc3ccccc32)cc1
5. CCCOc1ccc(NC(=O)CC2C(=O)N(c3ccccc3)C(=O)N2Cc2ccco2)cc1 (stereo not given)
6. C[C@H]1CN([C@@H](C)CO)C(=O)CCCn2nncc2CO[C@@H]1CN(C)C(=O)Nc1ccc(N2CCN(C)CC2)cc1

84.7% (inactive)
-15% (inactive)
-3.29% (inactive)
18.7% (inactive)
38.3% (inactive)
-20.2% (inactive)

For the 2 molecules below, give their activity change, negative = inhibition values.
1. CCC(=O)NC(Nc1cc(C)ccn1)(C(F)(F)F)C(F)(F)F
2. O=C1C(=O)N(CC2COc3ccccc3O2)c2ccccc21 (stereo not given)

["27.3% (inactive)", "-62.4% (active)"]

What measured activity change, negative = inhibition goes with Cc1ccnc(NC(c2ccc(C(F)(F)F)cc2)c2ccc3cccnc3c2O)c1 (stereo not given) ?
-97.9% (active)

----------
Experiment: qHTS Assay for inhibitors of the human cytomegalovirus (HCMV); also: % is scaled to controls: 0 for no effect and ±100 for the full control effect
Details: HFF cells, HCMV-luciferase reporter, 72 h; at 57.5 µM; hits give low values
Description: NCGC Assay Overview: Infection with human cytomegalovirus (HCMV) continues to pose significant threats for pregnant women and immunocompromised hosts. […] This is a cell-based assay for HCMV inhibition in HFFs cells. […] At 72 h post infection cell lysates were collected and luciferase activity was determined using the Glomax-Multi + Detection System (Promega, Madison, WI). […]
In all, about 410,000 compounds went through this assay and about 18,000 (4.4%) were called active. Not shown: some 7% with an inconclusive outcome. The sample holds actives, similar compounds and a random draw of the others, so the mix is not that of the screen.
property: activity change, negative = inhibition (%)
Answers are plain numbers, in %.

Before answering, review these 2 worked examples.
{"columns": ["compound", "endpoint.value"],
 "data": [
  ["COc1ccccc1NC(=O)c1oc2ccccc2c1NC(=O)C(C)C", 0.436],
  ["Cc1ccc(O)c(NC(=O)CCS(=O)(=O)c2nc(-c3ccc4c(c3)OCO4)cc(C(F)(F)F)n2)c1", 14.6]
]}

For the 5 compounds below, give their activity change, negative = inhibition values.
1. COc1ccc(C2C(=O)N(C3CCCCCC3)CC(=O)N2CCc2ccc(Cl)cc2)cc1OC (configuration not stated)
2. CC1(C(=O)NNC(=S)NCC2CCCO2)CC1(Cl)Cl (configuration not stated)
3. COc1cccc(C(=O)NCC(=O)OCc2cc(=O)n3ccsc3n2)c1
4. Cc1ccc(-n2ncc3c(N4CCC(C(N)=O)CC4)ncnc32)cc1
5. Cc1ccc(O)c(NC(=O)c2cc(-c3ccc(F)cc3)no2)c1

-12.5
-5.76
8.23
80.5
-17.5

For the 2 compounds below, give their activity change, negative = inhibition values.
1. CCOC(=O)Nc1ccc2c(c1)N(C(=O)CCCl)c1ccccc1[S@]2=O
2. O=C(NC1(C(F)(F)F)NC(=O)N(Cc2cccnc2)C1=O)c1ccccc1Cl (configuration not stated)

-102
-16

For the 3 compounds below, give their activity change, negative = inhibition values.
1. CC1=NN(Cc2ccccc2)C(=O)/C1=C/c1ccc(N(C)C)cc1
2. COc1ccc(/C=C2/C(=O)N(c3ccccc3)N=C2C)c(OC)c1
3. Cc1ccc(O)c(NC(=O)c2cc(-c3ccco3)on2)c1

-61.8
67.9
-60.7

Source listed as PubChem BioAssay AID1259415.
